Source listed as paper PMC9976900.

Target: T1, Unr CSD789 E786A/R856A/P860A (ERPmut) (Drosophila, UniProt B7Z0E2 756-990, E786A;R856A;P860A)
T1 sequence: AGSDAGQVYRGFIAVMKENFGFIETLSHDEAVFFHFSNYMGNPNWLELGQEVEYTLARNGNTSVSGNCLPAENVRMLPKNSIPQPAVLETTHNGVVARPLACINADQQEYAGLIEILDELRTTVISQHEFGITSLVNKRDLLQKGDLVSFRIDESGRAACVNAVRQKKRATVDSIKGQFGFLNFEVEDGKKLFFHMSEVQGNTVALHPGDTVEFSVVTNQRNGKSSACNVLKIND
Assay: fluorescence polarization
pKd: −log10 of the molar value.
PROPERTY_NAME: pKd

The binder AAAAAAAAAAAAAAA (ssRNA) [A15-mer, 3' labelled] showed pKd equal to ~4.02
